tested on: heterologous cumate-inducible system; assay: relative induction of RFP reporter vs primary effector; higher = stronger activation; conditions: inducer concentration 5 mM; 6 h; Cupriavidus necator H16; minimal medium + 0.4% gluconate
Parameter: relative induction of RFP reporter. Scope: all listed entries.
recorded-metric: relative induction of RFP reporter (%)

1) O=c1[nH]c(=O)c2nc[nH]c2[nH]1 [xanthine]
-0.479
2) O=C(O)CCO [3-hydroxypropanoate]
-0.514
3) O=C(O)CS(=O)(=O)O [sulfonatoacetate]
0.916
4) O=C(O)C(O)C(O)C(=O)O (stereo not drawn) [tartrate]
-0.8
5) O=C(O)c1ccc(O)c(O)c1 [3,4-dihydroxybenzoate]
-0.667
6) O=CO [formate]
-0.422
7) CC(=O)C(C)O (stereo not drawn) [acetoin]
-1.61
8) OC1OC[C@H](O)[C@H](O)[C@H]1O (mixture of isomers) [L-arabinose]
-0.337

---

test system: XdhR/P_H16_RS05055 xanthine biosensor (pEH154); test: relative induction of RFP reporter vs primary effector; higher = stronger activation; details: inducer concentration 5 mM; 6 h; Cupriavidus necator H16; minimal medium + 0.4% gluconate
recorded-metric: relative induction of RFP reporter

1) O=C(O)C(O)C(O)C(=O)O (configuration not stated) [tartrate]
-0.458%
2) Nc1ccccc1C(=O)C[C@H](N)C(=O)O [L-kynurenine]
-0.483%
3) C=CC(=O)O [acrylate]
-0.215%
4) O=C(O)c1ccccc1 [benzoate]
-0.493%
5) O=C(O)C(=O)c1ccccc1 [phenylglyoxylate]
-1.19%
6) OC1OC[C@H](O)[C@H](O)[C@H]1O (mixture of isomers) [L-arabinose]
-0.221%
7) CC(=O)C(C)O (configuration not stated) [acetoin]
-0.695%
8) NCCC(=O)O [β-alanine]
-0.793%
9) N[C@@H](Cc1ccc(O)cc1)C(=O)O [L-tyrosine]
-1.38%
10) N[C@@H](Cc1ccccc1)C(=O)O [L-phenylalanine]
-1.38%
11) O=CO [formate]
-0.347%
12) O=C(O)c1ccccc1O [salicylate]
-0.278%

---

Parameter: relative induction of RFP reporter. Scope: all listed entries.
test system: heterologous inducible system pEH020 (rhamnose/acrylate/cumate/itaconate set); test: relative induction of RFP reporter vs primary effector (background-corrected); higher = stronger activation of the biosensor; details: inducer concentration 5 mM; 6 h; Cupriavidus necator H16; minimal medium + 0.4% gluconate
recorded-metric: relative induction of RFP reporter

1. OC[C@@H](O)[C@@H](O)[C@H](O)[C@H](O)CO [D-mannitol]
-0.0264%
2. O=C(O)/C=C/C(=O)O [fumarate]
-0.346%
3. O=C(O)C1=C[C@@H](O)[C@@H](O)[C@H](O)C1 [shikimate]
-0.782%

---

tested on: PcaQ/P_H16_RS30145 3,4-dihydroxybenzoate biosensor (pEH161); test: relative induction of RFP reporter vs primary effector (background-corrected); higher = stronger activation of the biosensor; conditions: inducer concentration 5 mM; 6 h; Cupriavidus necator H16; minimal medium + 0.4% gluconate
recorded-metric: relative induction of RFP reporter (%)

1. O=C(O)C1CCCC1 [cyclopentane-1-carboxylate]
-0.184
2. C[C@H](N)C(=O)O
-0.263
3. O=C(O)/C=C/C(=O)O [fumarate]
0.0475
4. O=C(O)C(O)c1ccccc1 (configuration not stated)
0.0192
5. O=C(O)CCC(=O)O [succinate]
-0.0829
6. O=C(O)C[C@H](O)C(=O)O [L-malate]
0.148
7. CC(N)CC(=O)O (configuration not stated) [3-aminobutanoate]
0.0297

---

Parameter: relative induction of RFP reporter. Scope: all listed entries.
system: NahR/P_H16_RS08125 salicylate biosensor (pEH042); experiment: relative induction of RFP reporter vs primary effector; higher = stronger activation; conditions: inducer concentration 5 mM; 6 h; Cupriavidus necator H16; minimal medium + 0.4% gluconate
recorded-metric: relative induction of RFP reporter (%)

1) O=C(O)c1ccccc1 [benzoate]
0.078
2) O=C(O)CCO [3-hydroxypropanoate]
0.0108
3) C=CC(=O)O [acrylate]
0.00921
4) C=C(CC(=O)O)C(=O)O [itaconate]
0.0104
5) O=C(O)CS(=O)(=O)O [sulfonatoacetate]
-0.0115

---

system: NahR/P_H16_RS08125 salicylate biosensor (pEH042); assay: relative induction of RFP reporter vs primary effector (background-corrected); higher = stronger activation of the biosensor; settings: inducer concentration 5 mM; 6 h; Cupriavidus necator H16; minimal medium + 0.4% gluconate
Parameter: relative induction of RFP reporter. Scope: all listed entries.
recorded-metric: relative induction of RFP reporter (%)

1. NCC(N)C(=O)O (stereo not drawn) [2,3-diaminopropanoate]
0.0162
2. O=C(O)CC(=O)C(=O)O [oxaloacetate]
0.0244
3. O=C(O)C[C@H](O)C(=O)O [L-malate]
0.0296
4. Oc1ccccc1
0.011
5. O=C(O)[C@@H](O)[C@@H](O)[C@H](O)[C@@H](O)C(=O)O [glucarate]
0.0258
6. O=C(O)C(O)c1ccccc1 (stereo not drawn)
-0.000243
7. CC(N)CC(=O)O (stereo not drawn) [3-aminobutanoate]
0.00216
8. O=C(O)C1=CCCCC1 [cyclohexene-1-carboxylate]
-0.00892
9. O=c1[nH]cnc2nc[nH]c12
0.0182
10. O=C(O)/C=C/C(=O)O [fumarate]
-0.00283
11. OC[C@@H](O)[C@@H](O)[C@H](O)[C@H](O)CO
0.0228
12. NCC(O)C(=O)O (stereo not drawn) [3-amino-2-hydroxypropanoate]
0.0227
13. O=S(=O)(O)CCO [isethionate]
0.0152
14. NCCc1ccc(O)c(O)c1
0.0188
15. N[C@@H](Cc1c[nH]c2ccccc12)C(=O)O
0.00282
16. CC(=O)CCC(=O)O
-0.0149
17. O=C(O)c1cccnc1 [nicotinate]
0.0131
18. CCCC(=O)O
-0.000826

---

Parameter: relative induction of RFP reporter. Scope: all listed entries.
test system: GabR/P_H16_RS23655 GABA biosensor (pEH256); assay: relative induction of RFP reporter vs primary effector; higher = stronger activation; conditions: inducer concentration 5 mM; 6 h; Cupriavidus necator H16; minimal medium + 0.4% gluconate
recorded-metric: relative induction of RFP reporter (%)

1. NCCC(=O)O
-1.1
2. O=CO [formate]
-0.53
3. O=C(O)C(O)C(O)C(=O)O (configuration not stated) [tartrate]
0.312
4. O=C(O)CS(=O)(=O)O [sulfonatoacetate]
-1.11
5. N[C@@H](Cc1ccc(O)cc1)C(=O)O
-2.3
6. O=C(O)c1ccccc1 [benzoate]
-2.52
7. O=C(O)C(=O)c1ccccc1 [phenylglyoxylate]
-2.13

---

tested on: TtdR/P_H16_RS10665 tartrate biosensor (pEH083); experiment: relative induction of RFP reporter vs primary effector (background-corrected); higher = stronger activation of the biosensor; details: inducer concentration 5 mM; 6 h; Cupriavidus necator H16; minimal medium + 0.4% gluconate
recorded-metric: relative induction of RFP reporter (%)

1) O=C(O)CC(CC(=O)O)C(=O)O [tricarballylate]
1.3
2) O=C(O)C1CCCC1 [cyclopentane-1-carboxylate]
1.99
3) Oc1ccc(O)cc1 [hydroquinone]
1.2
4) Oc1ccccc1O [catechol]
2.09
5) O=C(O)c1cccnc1 [nicotinate]
-0.44
6) C[C@@H](O)C(=O)O [D-lactate]
0.347
7) N[C@@H](CC(=O)O)C(=O)O [L-aspartate]
-0.474
8) O=C(O)CCC(=O)O [succinate]
0.784
9) O=C(O)/C=C/C(=O)O [fumarate]
0.78
10) NC(=O)CC[C@H](N)C(=O)O [L-glutamine]
0.541
11) O=C(O)C(O)C(=O)O [tartronic acid]
0.714
12) NCC(=O)O [glycine]
0.812
13) O=C(O)c1ccc(O)cc1 [4-hydroxybenzoate]
0.895

---

tested on: FdsR/P_H16_RS03165 formate biosensor (pEH134); assay: relative induction of RFP reporter vs primary effector (background-corrected); higher = stronger activation of the biosensor; details: inducer concentration 5 mM; 6 h; Cupriavidus necator H16; minimal medium + 0.4% gluconate
recorded-metric: relative induction of RFP reporter (%)

1) O=C(O)c1cc(=O)c2ccccc2[nH]1 [kynurenate]
-9.16
2) Cn1cnc2c1c(=O)[nH]c(=O)n2C
3.33
3) Oc1cccc(O)c1
3.2
4) O=C(O)C1=CCCCC1 [cyclohexene-1-carboxylate]
-3.7
5) NCC(N)C(=O)O (stereo not drawn) [2,3-diaminopropanoate]
-1.38
6) O=CC(=O)O [glyoxylate]
-3.09
7) NCC(=O)O
-5.21
8) O=C(O)CC(=O)C(=O)O [oxaloacetate]
2.96
9) O=C(O)CC(CC(=O)O)C(=O)O [tricarballylate]
-2.35
10) CC(N)CC(=O)O (stereo not drawn) [3-aminobutanoate]
-2.98
11) Oc1ccc(O)cc1 [hydroquinone]
11.3
12) O=S(=O)(O)CCO [isethionate]
-5.83
13) CC(=O)CCC(=O)O
-11.8
14) OC[C@@H](O)[C@@H](O)[C@H](O)[C@H](O)CO
-0.914
15) O=C(O)C(O)C(=O)O
-1.37
16) O=C(O)CCC(=O)O [succinate]
6.43
17) O=C(O)c1cccnc1 [nicotinate]
113
18) NCCS(=O)(=O)O
-0.473
